B1: SEC22B (parent)
chain: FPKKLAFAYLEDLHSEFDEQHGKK

Variants of: B1
Assay: protein stability index of a GFP-peptide fusion (GPS, HEK-293T) (PSI 1-6); higher = more stable;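 also: lentivirally expressed fusions sorted by FACS into six bins by GFP to DsRed ratio, PSI derived from sequencing read proportions per bin multiplied by bin number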
Settings: c terminus: a fixed tail appended
attribute.measured: protein stability index
Reply: number alone, nothing else.

D18N: 2.3
L13N: 3.13
F17D: 3.03
Y9V: 2.2

Which protein stability index is listed for E16Y ? 1.56

Which protein stability index is listed for K23A ? 2.36
